System: U-251
Experiment notes: NCI tumour cell line growth inhibition, 48 h
Activity calls are given as the source filed them. Rule as the data show it: active = GI50 up to about 1.1 µM and inactive = higher.
Pick one: active, inactive

# count of solved cases: 3
Compound	Assigned class
COC(=O)CCCC(=O)NC1=C(Nc2ccccc2)C(=O)c2ccccc2C1=O	inactive
CCN(CC)CC(=O)/C=C/c1ccc(C)cc1	inactive
CC1=C(CO)C(=O)O[C@@H]([C@@H](C)[C@H]2CC[C@H]3[C@@H]4C[C@H]5O[C@]56[C@@H](O)C=CC(=O)[C@]6(C)[C@H]4CC[C@]23C)C1 [WITHAFERIN A]	active

We now examine a further compound.
Problem: What did this assay record as the result for COC(=O)C[S+]([O-])c1ccccc1 (stereo not drawn) ?
Result: inactive

====

Tested on: ACHN
Experiment notes: NCI tumour cell line growth inhibition, 48 h
The source made the active and inactive calls. Cut-off read from the data, not from the text of the source: active = GI50 up to about 1.1 µM and inactive = higher.
In this exercise, the only acceptable responses are yes (1) for active, no (0) for inactive

Molecule	Assigned class
O=C1Sc2ccccc2C(=O)N2CSCC12 (stereo not given)	no (0)

Problem: Record request — test call for C[N+](C)(C)CC1CCCCC1O (stereo not given)
Result: no (0)

Problem: // same read-out, input: `SC1=Nc2ccccc2-c2nc(-c3cccc(Cl)c3)cc(-c3ccccc3)c2C1`
Result: yes (1)

Problem: Can you check `COc1ccc(/N=N/c2ccc3oc(=O)c(C(=O)Nc4ccc(Cl)cc4)cc3c2)cc1` next?
Result: no (0)

Problem: Likewise for `C/C=C1\C(=O)O[C@H]2C/C(C)=C/CC/C(C)=C/CC[C@@]3(C)O[C@@H]3C[C@@H]12` ?
Result: no (0)

====

System: NCI-H226
Experiment notes: NCI tumour cell line growth inhibition, 48 h
Active and inactive are the calls of the source. Rule as the data show it: active = GI50 up to about 1.1 µM and inactive = higher.
Could you please pick one outcome from this set? active, inactive

Compound	Assigned class
C/C(=N\Nc1nc2ccccc2s1)c1cnccn1	active
Cc1ccc(C(=O)/C=C/N2CCN(c3cccc(C(F)(F)F)c3)CC2)cc1	inactive
COC(=O)c1cc(C#N)[nH]c1-c1ccsc1	inactive
Cc1ccc(O)c(C(c2cccc(C(c3cc(C)ccc3O)c3cc(C)ccc3O)c2)c2cc(C)ccc2O)c1	inactive
O=C1c2ccccc2C(=O)N1C/C=N/NS(=O)(=O)c1ccc2ccccc2c1	inactive
CCN(CC)c1ccc2cc(C(N)=O)c(=N)oc2c1	inactive

Moving on to the next compound.
Problem: Per the assay record, what outcome was assigned to `Nc1sccc1S(=O)(=O)c1ccsc1N` ?
Result: inactive

====

Test system: CCRF-CEM
Experiment notes: NCI tumour cell line growth inhibition, 48 h
Calls of active or inactive are those of the source. Cut-off read from the data, not from the text of the source: active = GI50 up to about 1.1 µM and inactive = higher.
Parameter: GI50

Some solved entries appear below for comparison.
Compound	GI50
O=C1CC[C@@H](NC(=O)Cc2ccccc2)C(=O)N1	> 100 µM (inactive)
CCOC(=O)CN(Cn1cncn1)Cn1cncn1	47 µM (inactive)
CCS/C(=N\c1ccccc1)SC	> 100 µM (inactive)
CC12CCC(C(=O)OC1=O)C(C)(C)O2 (configuration not stated)	> 100 µM (inactive)
O=C1C=C(Nc2ccc(Br)cc2)c2ccccc2/C1=N/O	23.6 µM (inactive)

Quick one: give me GI50 for each item below, same order please.
1. COc1c(-c2cccs2)oc2c(CC(=O)O)cccc2c1=O
2. COC(=O)C1=C(C)N2CCSC2(C)C(C(=O)OC)C1c1cccc(Cl)c1 (configuration not stated)
3. CCc1cccc(C)c1NC(=O)CCc1nnc(SC)o1
4. Cc1ccc(S(=O)(=O)N2CCN(S(=O)(=O)c3ccc(C)cc3)CCN(S(=O)(=O)c3ccc(C)cc3)Cc3cc(Br)c(Br)cc3CN(S(=O)(=O)c3ccc(C)cc3)CC2)cc1
5. C1=C[C@@H]2c3ccc4cnccc4c3NC[C@@H]2C1

Result:
1: > 100 µM (inactive); 2: 23.1 µM (inactive); 3: > 100 µM (inactive); 4: > 100 µM (inactive); 5: > 100 µM (inactive)

Could you report GI50 for every entry in the following list?
1. Cc1ccc(NC(=O)C(=O)C(C#N)c2ccccc2C)cc1C (configuration not stated)
2. O=c1cc2n(c(=O)[nH]1)C1OC(C(O)C1O)[C@H]2CCO (some centres not stated)

Result:
1. > 61.7 µM (inactive)
2. > 100 µM (inactive)
